Please go through the items and note down their MIC Assay VRE Strains: CSUC-4 van25.
System: VRE-CSUC4 (vancomycin resistant enterococci)
Test: MIC assay, VRE strain CSUC-4
Type: cell-based
Conditions: 25 μg/mL Vancomycin - 24 h
Give bare numbers, in µM.

INSERT INTO results (compound, endpoint_unit, experimental_value) VALUES
  ('Cn1cc(NC(=O)c2cc(NC(=O)CN)cn2C)cc1C(=O)NCCCN(CCCNC(=O)c1cc(NC(=O)c2cc(NC(=O)CN)cn2C)cn1C)C(=O)OCc1ccccc1 [Compound 42]', 'µM', 22.7);

Reported MIC Assay VRE Strains: CSUC-4 van25 (VRE-CSUC4 (vancomycin resistant enterococci)) for entry Cn1cc(NC(=O)c2cc(NC(=O)CN)cn2C)cc1C(=O)NCCCN(CCCNC(=O)c1cc(NC(=O)c2cc(NC(=O)CN)cn2C)cn1C)CCCNC(=O)c1cc(NC(=O)c2cc(NC(=O)CN)cn2C)cn1C [Compound 74] is 22.7
